Values from patent US20080050810A1

# Experimental target: anti-CC49 variable region antibodies in the serum of patient five
# Protocol: HPLC, 125I-HuCC49 + serum + 5 Tg competitor; fewer complexes = competitor bound
What percent of complexes was measured for each of the following?
Dear colleague, please return just the value in %, with no unit written.

Consider the binder shown here: HuCC49 CDR variant H-3 (antibody, V domains shown) VH: QVQLVQSGAEVVKPGASVKISCKASGYTFTDHAIHWVKQNPGQRLEWIGYFSPGNDDFKYNERFKGKATLTADTSASTAYVELSSLRSEDTAVYFCTRGGYYGSGSGSNYWGQGTLVTVSS VL: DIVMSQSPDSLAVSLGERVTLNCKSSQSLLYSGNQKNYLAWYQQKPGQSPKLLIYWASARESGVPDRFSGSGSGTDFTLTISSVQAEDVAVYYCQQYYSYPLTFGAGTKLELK What is its recorded percent of complexes?
4.6

Which percent of complexes value is on record for HuCC49 CDR variant L-2 (antibody, V domains shown) VH: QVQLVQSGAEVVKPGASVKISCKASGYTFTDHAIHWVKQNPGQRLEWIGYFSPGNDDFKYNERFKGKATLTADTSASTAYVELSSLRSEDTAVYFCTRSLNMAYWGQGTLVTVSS VL: DIVMSQSPDSLAVSLGERVTLNCKSSQSLLYSGNQKNYLAWYQQKPGQSPKLLIYWASTRESGVPDRFSGSGSGTDFTLTISSVQAEDVAVYYCQQYYSYPLTFGAGTKLELK ?
2.4
